The reader will find reported log10(IC50) values listed item by item below.
# targetOrTestSystem: CDK2/CyclinE (Homo sapiens, UniProt P24941)
# experimentalProtocol: CDK2/CyclinE Flashplate assay, 96-well format, biotinylated-Rb peptide substrate
measuredMetric: log10(IC50) (log10 of the value in nM)

{"compound": "O=C(NCc1ccccc1)Nc1nc2cc(OS(=O)(=O)c3ccc(-n4ccnc4)cc3)ccc2[nH]1", "log10(IC50)": 1.85}
{"compound": "CCN(CC)CCNc1ccc(S(=O)(=O)Oc2ccc3[nH]c(NC(=O)OC)nc3c2)cc1", "log10(IC50)": 3.30}
{"compound": "O=C(NCCCO)Nc1nc2cc(OS(=O)(=O)c3ccc(NCC4CCCO4)cc3)ccc2[nH]1 (stereo not drawn)", "log10(IC50)": 0.85}
{"compound": "O=C(NCc1ccccc1Cl)Nc1nc2cc(OS(=O)(=O)c3ccc(NC4CCCC4)cc3)ccc2[nH]1", "log10(IC50)": 3.00}
{"compound": "O=C(Nc1nc2cc(OS(=O)(=O)c3ccc(NC4CCCC4)cc3)ccc2[nH]1)N[C@H]1CC[C@H](O)CC1", "log10(IC50)": 1.60}
{"compound": "CC(C)NC(=O)Nc1nc2cc(OS(=O)(=O)c3ccc(NC4CCCC4)cc3)ccc2[nH]1", "log10(IC50)": 2.08}
{"compound": "O=C(Nc1nc2cc(OS(=O)(=O)c3ccc(NC4CCCC4)cc3)ccc2[nH]1)NC1CCCCC1", "log10(IC50)": 2.95}
{"compound": "COC(=O)Nc1nc2cc(OS(=O)(=O)c3ccc(NCCO)cc3)ccc2[nH]1", "log10(IC50)": 2.78}
{"compound": "O=C(NCCNCCO)Nc1nc2cc(OS(=O)(=O)c3ccc(NC4CCCC4)cc3)ccc2[nH]1", "log10(IC50)": 2.00}
{"compound": "COC(=O)Nc1nc2cc(OS(=O)(=O)c3ccc(OCC(=O)N4CCCC4)cc3)ccc2[nH]1", "log10(IC50)": 3.00}
{"compound": "O=C(Nc1ccc(Cl)cc1)Nc1nc2cc(OS(=O)(=O)c3ccc(NC4CCCC4)cc3)ccc2[nH]1", "log10(IC50)": 3.04}
{"compound": "COC(=O)CCC(=O)Nc1nc2cc(OS(=O)(=O)c3ccc(NC4CCCC4)cc3)ccc2[nH]1", "log10(IC50)": 1.90}
{"compound": "COc1ccc(NC(=O)Nc2nc3cc(OS(=O)(=O)c4ccc(NC5CCCC5)cc4)ccc3[nH]2)cc1", "log10(IC50)": 2.46}
{"compound": "O=C(Nc1nc2cc(OS(=O)(=O)c3ccc(-n4ccnc4)cc3)ccc2[nH]1)Nc1ccccc1F", "log10(IC50)": 2.72}
{"compound": "O=C(NCCCN1CCCC1=O)Nc1nc2cc(OS(=O)(=O)c3ccc(NC4CCCC4)cc3)ccc2[nH]1", "log10(IC50)": 1.11}
